Test: Half life in dog at 1 mg/kg,iv
Format: ADME, organism-based, Canis lupus familiaris
Details: in vivo
observed-property: half-life (h)
Report only the number, with the unit h understood.

half-life in this record for Cc1ccccc1N[C@H]1[C@H](C(C)(C)C)[C@@H](C(=O)O)N(C(=O)[C@@H]2CCCCO2)[C@H]1c1ccccc1C(C)C : 3.35

---

Test system: Cystic fibrosis transmembrane conductance regulator (Homo sapiens), P13569 [F508del]
Sequence (P13569 as listed by the source): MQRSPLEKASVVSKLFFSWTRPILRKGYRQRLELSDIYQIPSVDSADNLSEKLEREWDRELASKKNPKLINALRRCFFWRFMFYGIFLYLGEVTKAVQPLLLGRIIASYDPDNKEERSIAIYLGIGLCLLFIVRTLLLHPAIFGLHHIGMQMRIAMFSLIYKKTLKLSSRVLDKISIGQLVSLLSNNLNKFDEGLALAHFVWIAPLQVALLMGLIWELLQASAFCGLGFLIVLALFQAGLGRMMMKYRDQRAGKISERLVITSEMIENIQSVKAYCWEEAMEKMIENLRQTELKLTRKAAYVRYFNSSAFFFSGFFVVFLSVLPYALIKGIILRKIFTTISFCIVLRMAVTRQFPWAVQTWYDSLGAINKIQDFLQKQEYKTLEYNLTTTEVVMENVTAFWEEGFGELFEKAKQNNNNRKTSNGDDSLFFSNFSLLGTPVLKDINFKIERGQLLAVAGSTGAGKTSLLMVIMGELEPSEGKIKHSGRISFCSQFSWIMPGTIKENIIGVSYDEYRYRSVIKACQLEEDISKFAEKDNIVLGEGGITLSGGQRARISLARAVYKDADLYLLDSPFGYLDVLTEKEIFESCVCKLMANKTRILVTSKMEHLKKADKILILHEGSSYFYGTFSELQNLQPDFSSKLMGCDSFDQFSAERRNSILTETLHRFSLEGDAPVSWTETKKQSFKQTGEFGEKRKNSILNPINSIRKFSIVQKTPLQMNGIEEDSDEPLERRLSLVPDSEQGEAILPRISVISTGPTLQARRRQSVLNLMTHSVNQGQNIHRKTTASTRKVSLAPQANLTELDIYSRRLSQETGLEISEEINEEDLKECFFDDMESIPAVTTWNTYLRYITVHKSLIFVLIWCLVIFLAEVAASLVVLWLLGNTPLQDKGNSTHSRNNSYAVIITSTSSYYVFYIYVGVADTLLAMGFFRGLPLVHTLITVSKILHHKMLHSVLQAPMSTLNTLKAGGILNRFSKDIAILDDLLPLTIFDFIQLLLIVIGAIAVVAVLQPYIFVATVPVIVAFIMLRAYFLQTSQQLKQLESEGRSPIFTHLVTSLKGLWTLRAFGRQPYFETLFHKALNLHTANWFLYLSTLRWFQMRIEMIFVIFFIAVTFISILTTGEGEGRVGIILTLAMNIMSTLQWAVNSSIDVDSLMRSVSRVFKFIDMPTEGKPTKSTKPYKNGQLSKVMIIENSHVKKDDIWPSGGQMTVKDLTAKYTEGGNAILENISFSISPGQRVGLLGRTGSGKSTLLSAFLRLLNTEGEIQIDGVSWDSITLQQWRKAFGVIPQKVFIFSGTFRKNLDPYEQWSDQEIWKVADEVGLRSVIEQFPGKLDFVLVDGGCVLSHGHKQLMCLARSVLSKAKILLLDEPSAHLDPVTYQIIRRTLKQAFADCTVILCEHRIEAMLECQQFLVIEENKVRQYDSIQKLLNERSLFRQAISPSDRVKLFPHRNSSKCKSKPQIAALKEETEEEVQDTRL
Assay: Potentiation of homozygous CFTR F508del mutant in human HBE cells assessed as maximal activation by trans-epithelial current clamp assay relative to ABBV-2222
Assay type: cell-based
Details: filed as activator
observed-property: %max (%)
Report only the number, with the unit % understood.

>  <compound>
COc1ccc(Cl)cc1CN[C@H]1[C@H](C(C)(C)C)[C@@H](C(=O)O)N(C(=O)C2CCCCC2)[C@H]1c1ccccc1

>  <assayed-target>
Cystic fibrosis transmembrane conductance regulator (Homo sapiens), P13569 [F508del]

>  <unit-descriptor>
%

>  <%max>
109

$$$$

%max in this record for COc1ncc(C2CCC2)cc1CN[C@H]1[C@H](C(C)(C)C)[C@@H](C(=O)O)N(C(=O)C2CCCCC2)[C@H]1c1ccccc1 : 106

%max in this record for COc1ncc(C(C)(C)C)cc1CN[C@H]1[C@H](C(C)(C)C)[C@@H](C(=O)O)N(C(=O)C2CCCCC2)[C@H]1c1ccccc1 : 114
